# Target System: Lyn (Homo sapiens, UniProt P07948)
# Construct: purchased Upstate (Charlottesville, Va.)
# Sequence (P07948 whole entry, species assumed): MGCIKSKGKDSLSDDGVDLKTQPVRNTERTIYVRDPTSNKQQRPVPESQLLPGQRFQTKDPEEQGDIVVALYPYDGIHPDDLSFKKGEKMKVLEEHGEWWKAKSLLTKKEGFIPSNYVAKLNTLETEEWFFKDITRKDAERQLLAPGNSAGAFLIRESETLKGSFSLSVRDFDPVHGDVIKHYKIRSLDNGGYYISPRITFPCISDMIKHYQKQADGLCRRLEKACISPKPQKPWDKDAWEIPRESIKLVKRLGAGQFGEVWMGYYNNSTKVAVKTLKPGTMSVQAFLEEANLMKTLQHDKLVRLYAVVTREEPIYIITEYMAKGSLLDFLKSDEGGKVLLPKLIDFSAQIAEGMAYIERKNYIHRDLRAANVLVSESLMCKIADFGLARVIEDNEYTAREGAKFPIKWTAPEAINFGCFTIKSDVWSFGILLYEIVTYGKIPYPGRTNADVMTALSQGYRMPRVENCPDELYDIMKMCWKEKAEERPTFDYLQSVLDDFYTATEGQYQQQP
# Test Summary: Broad selectivity panel, 32P incorporation
# Type: biochemical
# Test Parameters: 0.1 μM compound, 40 μM ATP; read-out: Percent inhibition Lyn
Readout Name: inhibition at 0.1 µM (%)
Field format: number, assumed %, no unit text.

Reference set (2 entries):
Compound: CC(=O)N1CCC(Nc2nccc(-c3c(-c4ccc(F)cc4)nc4occn34)n2)CC1 [CCLXXVIII]
inhibition at 0.1 µM / %: -26
--
Compound: Fc1ccc(-c2nc3occn3c2-c2ccnc(N[C@@H]3CN4CCC3CC4)n2)cc1 [LXXI]
inhibition at 0.1 µM / %: 4

For the compound Fc1ccc(-c2nc3occn3c2-c2ccnc(NC3CCNCC3)n2)cc1 [CCLXXX] , what inhibition at 0.1 µM is on record?
-24

Then what about the compound CN1[C@@H]2CC[C@H]1C[C@@H](Nc1nccc(-c3c(-c4ccc(F)cc4)nc4occn34)n1)C2 [CCLXXXI] ?
-6

---

# Test system: TNFα release from THP-1 cells
# Test Summary: TNFα release from LPS-stimulated THP-1 cells
# Type: cell-based
# Test Parameters: LPS 10 μg/ml, 18 hours; read-out: TNFα (THP-1) IC50
pIC50: recorded values
Keep it numeric: pIC50 is minus log10 of the concentration in mol/L.

Molecule: CC(C)[C@@H](CO)Nc1nccc(-c2c(-c3ccc(Br)cc3)nc3sccn23)n1
Readout Name: pIC50
Numeric Readout: 7.00
--
Molecule: COc1cccc(-c2nc3sccn3c2-c2ccnc(N[C@H](CO)C(C)C)n2)c1
Readout Name: pIC50
Numeric Readout: 7.03
--
Molecule: OC(CNc1nccc(-c2c(-c3ccc(F)cc3)nc3occn23)n1)c1ccccc1 (centres unmarked)
Readout Name: pIC50
Numeric Readout: 7.22
--
Molecule: CC(CO)Nc1nccc(-c2c(-c3ccc(F)cc3)nc3occn23)n1 (centres unmarked) [XLI]
Readout Name: pIC50
Numeric Readout: 7.31
--
Molecule: CC(O)CNc1nccc(-c2c(-c3ccc(F)cc3)nc3occn23)n1 (centres unmarked)
Readout Name: pIC50
Numeric Readout: 7.71

Form field - read-out: pIC50; system: TNFα release from THP-1 cells; submitted item: CC(CO)Nc1nccc(-c2c(-c3ccc(F)cc3)nc3occn23)n1 (centres unmarked) [XXX]
7.91

Also CC(C)[C@@H](CO)Nc1nccc(-c2c(-c3ccc(F)c(F)c3)nc3sccn23)n1 , if possible.
7.36

Then this molecule: Cc1ccc(-c2nc3sccn3c2-c2ccnc(N[C@H](CO)C(C)C)n2)cc1
7.23

---

Reported inhibition at 0.1 µM values for the following molecules.
# Target System: SAPK4 (Homo sapiens, UniProt O15264)
# Construct: purchased Upstate (Charlottesville, Va.)
# Sequence (O15264 whole entry, species assumed): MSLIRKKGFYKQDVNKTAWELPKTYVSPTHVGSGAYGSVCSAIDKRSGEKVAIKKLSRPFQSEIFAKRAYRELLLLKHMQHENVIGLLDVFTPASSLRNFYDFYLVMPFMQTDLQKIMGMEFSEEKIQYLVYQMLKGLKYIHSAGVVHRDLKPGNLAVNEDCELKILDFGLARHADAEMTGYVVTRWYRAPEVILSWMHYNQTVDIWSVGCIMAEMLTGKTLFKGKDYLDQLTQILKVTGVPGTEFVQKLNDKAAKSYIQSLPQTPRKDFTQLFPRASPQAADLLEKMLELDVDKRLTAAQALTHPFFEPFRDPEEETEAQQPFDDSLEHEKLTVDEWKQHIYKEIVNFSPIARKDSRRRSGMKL
# Test Summary: Broad selectivity panel, 32P incorporation
# Format: biochemical
# Test Parameters: 0.1 μM compound, 40 μM ATP; read-out: Percent inhibition SAPK4
# Method: Various compounds of the present invention are screened against a panel of 24 additional kinases (Upstate, Charlottesville, Va.). Compounds are tested 0.1 μM and 1 μM in reactions containing 40 μM ATP. Incorporation of radiolabeled phosphate (^32P) into each kinase substrate is measured in the presence and absence of test compound. Results are reported as the percent decrease in the amount of ^32P incorporated into the substrate in the presence of compound, compared to buffer control.

Look over these answered cases.
Molecule: Fc1ccc(-c2nc3occn3c2-c2ccnc(N[C@H]3CN4CCC3CC4)n2)cc1 [LXXXVII]
Target System: SAPK4 (Homo sapiens, UniProt O15264)
Readout Name: inhibition at 0.1 µM
Result: -3%
//
Molecule: Fc1ccc(-c2nc3occn3c2-c2ccnc(N[C@@H]3CN4CCC3CC4)n2)cc1 [LXXI]
Target System: SAPK4 (Homo sapiens, UniProt O15264)
Readout Name: inhibition at 0.1 µM
Result: -1%

Sample CC(=O)N1CCC(Nc2nccc(-c3c(-c4ccc(F)cc4)nc4occn34)n2)CC1 [CCLXXVIII] — what was its inhibition at 0.1 µM?
-3%

---

# Target System: InsR (Homo sapiens)
# Construct: purchased Upstate (Charlottesville, Va.)
# Sequence (P06213 28-1382, species assumed): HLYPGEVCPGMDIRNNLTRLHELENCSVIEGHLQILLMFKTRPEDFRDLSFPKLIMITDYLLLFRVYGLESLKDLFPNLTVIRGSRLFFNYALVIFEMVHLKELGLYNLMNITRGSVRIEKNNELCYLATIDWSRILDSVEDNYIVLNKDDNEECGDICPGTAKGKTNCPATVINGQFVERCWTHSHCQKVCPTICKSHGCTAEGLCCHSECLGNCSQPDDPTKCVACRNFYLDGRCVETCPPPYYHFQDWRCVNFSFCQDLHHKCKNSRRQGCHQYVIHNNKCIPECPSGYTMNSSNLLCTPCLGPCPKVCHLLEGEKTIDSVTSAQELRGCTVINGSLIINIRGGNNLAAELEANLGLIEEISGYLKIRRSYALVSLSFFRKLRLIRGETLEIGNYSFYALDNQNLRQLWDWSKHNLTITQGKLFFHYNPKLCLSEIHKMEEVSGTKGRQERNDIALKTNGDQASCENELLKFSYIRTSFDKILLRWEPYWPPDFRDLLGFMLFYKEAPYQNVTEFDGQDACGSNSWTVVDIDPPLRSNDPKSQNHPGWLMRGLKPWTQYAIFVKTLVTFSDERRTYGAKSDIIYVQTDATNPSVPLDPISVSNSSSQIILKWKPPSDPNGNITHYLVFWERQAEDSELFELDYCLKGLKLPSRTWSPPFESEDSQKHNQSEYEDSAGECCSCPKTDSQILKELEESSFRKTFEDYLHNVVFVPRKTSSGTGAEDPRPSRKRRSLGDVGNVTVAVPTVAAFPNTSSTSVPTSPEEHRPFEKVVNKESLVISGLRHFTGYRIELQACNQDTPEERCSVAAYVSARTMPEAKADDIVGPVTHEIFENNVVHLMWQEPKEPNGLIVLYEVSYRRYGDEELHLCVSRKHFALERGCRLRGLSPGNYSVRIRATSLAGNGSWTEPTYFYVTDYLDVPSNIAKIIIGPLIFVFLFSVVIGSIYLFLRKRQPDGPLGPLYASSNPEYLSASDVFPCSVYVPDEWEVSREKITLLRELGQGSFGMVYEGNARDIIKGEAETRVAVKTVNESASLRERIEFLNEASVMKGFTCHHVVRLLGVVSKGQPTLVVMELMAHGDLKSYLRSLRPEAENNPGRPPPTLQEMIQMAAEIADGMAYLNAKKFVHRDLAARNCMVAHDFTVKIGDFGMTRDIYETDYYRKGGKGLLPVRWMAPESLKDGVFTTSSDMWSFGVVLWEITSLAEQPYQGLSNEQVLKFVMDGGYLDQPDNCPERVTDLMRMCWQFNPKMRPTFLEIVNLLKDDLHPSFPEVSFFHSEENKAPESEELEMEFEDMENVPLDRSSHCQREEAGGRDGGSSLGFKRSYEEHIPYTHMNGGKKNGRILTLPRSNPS
# Test Summary: Broad selectivity panel, 32P incorporation
# Assay type: biochemical
# Test Parameters: 0.1 μM compound, 40 μM ATP; read-out: Percent inhibition InsR
Readout Name: inhibition at 0.1 µM (%)
Respond numerically; units are % and should not be typed.

Structure Notation: Fc1ccc(-c2nc3occn3c2-c2ccnc(N[C@H]3CN4CCC3CC4)n2)cc1
Target System: InsR (Homo sapiens)
Unit Abbrev: %
inhibition at 0.1 µM: -8

Structure Notation: CN(C)CC(C)(C)CNc1nccc(-c2c(-c3ccc(F)cc3)nc3occn23)n1
Target System: InsR (Homo sapiens)
Unit Abbrev: %
inhibition at 0.1 µM: 8

Structure Notation: CC(=O)N1CCC(Nc2nccc(-c3c(-c4ccc(F)cc4)nc4occn34)n2)CC1
Target System: InsR (Homo sapiens)
Unit Abbrev: %
inhibition at 0.1 µM: -28

Structure Notation: CS(=O)(=O)N1CCC(Nc2nccc(-c3c(-c4ccc(F)cc4)nc4occn34)n2)CC1
Target System: InsR (Homo sapiens)
Unit Abbrev: %
inhibition at 0.1 µM: 9

If you can, please state the reported inhibition at 0.1 µM value of CN1[C@@H]2CC[C@H]1C[C@@H](Nc1nccc(-c3c(-c4ccc(F)cc4)nc4occn34)n1)C2 .
-7

Same thing, different molecule: Fc1ccc(-c2nc3occn3c2-c2ccnc(N[C@@H]3CN4CCC3CC4)n2)cc1
-25

---

Let's look at some compounds and their measured inhibition at 0.1 µM.
# Target System: GSK3β (Homo sapiens)
# Construct: purchased Upstate (Charlottesville, Va.)
# Test Summary: Broad selectivity panel, 32P incorporation
# Format: biochemical
# Test Parameters: 0.1 μM compound, 40 μM ATP; read-out: Percent inhibition GSK3β
Output spec: scalar in %, unitless text.

Record request: inhibition at 0.1 µM value, item Fc1ccc(-c2nc3occn3c2-c2ccnc(N[C@H]3CN4CCC3CC4)n2)cc1
6

Same question, Fc1ccc(-c2nc3occn3c2-c2ccnc(N[C@@H]3CN4CCC3CC4)n2)cc1 this time
-8

---

Parameter: inhibition at 1 µM. Scope: all listed entries.
# Target System: GSK3β (Homo sapiens, UniProt P49841)
# Construct: purchased Upstate (Charlottesville, Va.)
# Sequence (P49841 whole entry, species assumed): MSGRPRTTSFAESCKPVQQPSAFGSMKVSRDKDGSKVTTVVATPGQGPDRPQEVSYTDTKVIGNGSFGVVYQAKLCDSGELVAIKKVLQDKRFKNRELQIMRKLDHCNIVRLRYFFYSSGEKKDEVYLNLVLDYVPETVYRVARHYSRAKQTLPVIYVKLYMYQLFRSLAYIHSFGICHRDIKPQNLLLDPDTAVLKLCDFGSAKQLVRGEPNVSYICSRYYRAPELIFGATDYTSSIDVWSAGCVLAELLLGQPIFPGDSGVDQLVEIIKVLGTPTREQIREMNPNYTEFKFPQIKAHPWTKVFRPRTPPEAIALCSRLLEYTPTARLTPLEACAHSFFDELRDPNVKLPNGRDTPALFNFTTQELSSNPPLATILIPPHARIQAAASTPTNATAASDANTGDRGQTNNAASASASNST
# Test Summary: Broad selectivity panel, 32P incorporation
# Format: biochemical
# Test Parameters: 1 μM compound, 40 μM ATP; read-out: Percent inhibition GSK3β
Kindly answer with a numeric value in %, unit omitted.

Compound: CN(C)CC(C)(C)CNc1nccc(-c2c(-c3ccc(F)cc3)nc3occn23)n1 [CXIX]
inhibition at 1 µM / %: 13
--
Compound: CN1[C@@H]2CC[C@H]1C[C@@H](Nc1nccc(-c3c(-c4ccc(F)cc4)nc4occn34)n1)C2 [CCLXXXI]
inhibition at 1 µM / %: 19
--
Compound: CC(=O)N1CCC(Nc2nccc(-c3c(-c4ccc(F)cc4)nc4occn34)n2)CC1 [CCLXXVIII]
inhibition at 1 µM / %: 66
--
Compound: Fc1ccc(-c2nc3occn3c2-c2ccnc(N[C@@H]3CN4CCC3CC4)n2)cc1 [LXXI]
inhibition at 1 µM / %: 10
--
Compound: Fc1ccc(-c2nc3occn3c2-c2ccnc(NC3CCNCC3)n2)cc1 [CCLXXX]
inhibition at 1 µM / %: 14
--
Compound: Fc1ccc(-c2nc3occn3c2-c2ccnc(N[C@H]3CN4CCC3CC4)n2)cc1 [LXXXVII]
inhibition at 1 µM / %: 8

Bench note: what inhibition at 1 µM did CS(=O)(=O)N1CCC(Nc2nccc(-c3c(-c4ccc(F)cc4)nc4occn34)n2)CC1 [CCLXXIX] show?
57

---

# Target System: p38α (Homo sapiens, UniProt Q16539)
# Construct: p38 MAP Kinases are recombinant human full-length proteins with an amino-terminal GST fusion; GST (N)
# Sequence (Q16539 whole entry, the tested form may be a part): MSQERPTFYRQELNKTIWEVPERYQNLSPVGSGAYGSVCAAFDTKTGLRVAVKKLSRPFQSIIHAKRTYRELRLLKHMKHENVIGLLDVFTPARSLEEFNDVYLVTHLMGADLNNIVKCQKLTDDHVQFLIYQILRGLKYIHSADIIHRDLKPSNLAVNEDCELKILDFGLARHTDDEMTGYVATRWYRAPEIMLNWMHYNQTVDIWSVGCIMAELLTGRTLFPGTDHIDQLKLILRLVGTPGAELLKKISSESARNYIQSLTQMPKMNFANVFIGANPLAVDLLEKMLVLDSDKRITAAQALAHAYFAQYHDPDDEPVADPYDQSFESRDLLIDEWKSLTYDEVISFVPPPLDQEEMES
# Test Summary: p38 MAP Kinase assay, ATF2 phosphorylation (ELISA)
# Test Parameters: 40 μM ATP
// reported IC50 per item
Could you give me the number in nM? Just the number is fine.

Known IC50 results, listed for orientation:
Compound: CCCCC(CO)Nc1nccc(-c2c(-c3ccc(F)cc3)nc3occn23)n1 (centres unmarked) [LX]
Target System: p38α (Homo sapiens, UniProt Q16539)
IC50 [nM]: 20.5
--
Compound: CC(CO)Nc1nccc(-c2c(-c3ccc(F)cc3)nc3occn23)n1 (centres unmarked) [XXX]
Target System: p38α (Homo sapiens, UniProt Q16539)
IC50 [nM]: 34.8
--
Compound: OC1(CNc2nccc(-c3c(-c4ccc(F)cc4)nc4sccn34)n2)CCCc2ccccc21 (centres unmarked) [CCXLVIII]
Target System: p38α (Homo sapiens, UniProt Q16539)
IC50 [nM]: 8.39
--
Compound: CC(C)C[C@H](CO)Nc1nccc(-c2c(-c3ccc(F)cc3)nc3sccn23)n1 [CLXXXII]
Target System: p38α (Homo sapiens, UniProt Q16539)
IC50 [nM]: 347
--
Compound: FC(F)(F)c1cccc(-c2nc3occn3c2-c2ccnc(N[C@H]3CN4CCC3CC4)n2)c1 [CCXCIV]
Target System: p38α (Homo sapiens, UniProt Q16539)
IC50 [nM]: 16.4
--
Compound: Fc1ccc(-c2nc3occn3c2-c2ccnc(N[C@@H]3CN4CCC3CC4)n2)c(F)c1 [CCLXXXIX]
Target System: p38α (Homo sapiens, UniProt Q16539)
IC50 [nM]: 1.3
--
Compound: CN1[C@@H]2CC[C@H]1C[C@@H](Nc1nccc(-c3c(-c4ccc(F)cc4Cl)nc4occn34)n1)C2 [CCXCVI]
Target System: p38α (Homo sapiens, UniProt Q16539)
IC50 [nM]: 3.6
--
Compound: CN(C)CC(C)(C)CNc1nccc(-c2c(-c3ccc(F)cc3)nc3occn23)n1 [CXIX]
Target System: p38α (Homo sapiens, UniProt Q16539)
IC50 [nM]: 17
--
Compound: OCC(CO)(CO)Nc1nccc(-c2c(-c3ccc(F)cc3)nc3occn23)n1 [LXXXVI]
Target System: p38α (Homo sapiens, UniProt Q16539)
IC50 [nM]: 227
--
Compound: Fc1ccc(-c2nc3occn3c2-c2ccnc(NCc3cccnc3)n2)cc1 [LXXXV]
Target System: p38α (Homo sapiens, UniProt Q16539)
IC50 [nM]: 66.3

Can you share its IC50? I mean this compound: CN1[C@@H]2CC[C@H]1C[C@@H](Nc1nccc(-c3c(-c4ccc(F)cc4)nc4occn34)n1)C2 [CCLXXXI]
4.91
